# Measured on: aldose reductase (Bos taurus, UniProt P16116)
# Construct: partially purified aldose reductase enzyme obtained from calf lens; from tissue; host or cells: calf lens
# Procedure text: inhibition of aldose reductase enzyme activity (partially purified enzyme from calf lens)
# Format: biochemical
# Conditions used: 10^-6 M; / indicates results of duplicate tests
Parameter measured: inhibition at 1 µM

In [3]: df
Out[3]:
                                   molecule  result
0  O=C1NC(=O)C2(CCSc3ccc(F)cc32)O1 (centres unmarked)     61%
1  O=C1NC(=O)C2(CCOc3ccc(F)cc32)O1 (centres unmarked)     65%
2  O=C1NC(=O)C2(CCSc3ccccc32)O1 (centres unmarked)     42%
3  Cc1cc(Cl)cc2c1OCCC21OC(=O)NC1=O (centres unmarked)     81%
4  O=C1NC(=O)C2(CCOc3ccc(Cl)cc32)O1 (centres unmarked) [Example 3]     86%
5  O=C1NC(=O)C2(CCOc3ccc(Br)cc32)O1 (centres unmarked)    100%
6  O=C1NC(=O)C2(CCOc3c(Cl)cc(Cl)cc32)O1 (centres unmarked)    100%
7  O=C1NC(=O)C2(CCOc3ccc(Cl)cc32)O1 (single isomer, unassigned; (-)) [Example 35]     96%
